Each entry below lists one item and its recorded normalized growth value.
# experiment_notes: chemical genetic growth profiling, strain panel (AID 1159580);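 also: tested at 20 µM; growth read once vehicle control cultures reached saturation at 30 °C; 1 = growth at the plate median or of vehicle wells; lower values mean less growth of the strain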
# condition: S. cerevisiae deletion strains, growth OD, locus YKL068W, hits give low values
About 2,000 (36%) of roughly 5,500 compounds were called active. Inconclusive results (about 18%) are left out. The list shows a part of the results.
Field format: numeric only.

Answered cases to consult:
compound	measured_attribute	measured_number
C/C=C(\C)C(=O)OC1[C@@H]2C=C3C4CC(=O)O[C@@H](c5ccoc5)[C@]4(C)CCC3[C@@](C)(C2=O)[C@@H](C(O)C(=O)OC)C1(C)C (stereo partly specified)	normalized growth	1.01
C[C@H]1C(=O)O[C@@H]2CCN3CC=C(COC(=O)[C@](C)(O)[C@]1(C)O)[C@H]23	normalized growth	0.992
Fc1ccc(C(c2ccc(F)cc2)N2CCN(C/C=C/c3ccccc3)CC2)cc1	normalized growth	0.982

Lookup result for "O=C(CCCN1CC=C(n2c(=O)[nH]c3ccccc32)CC1)c1ccc(F)cc1" ; measured normalized growth: 0.989

get_value(item= CC1=C(C(=O)O)N2C(=O)[C@@H](NC(=O)[C@H](N)C3=CCC=CC3)C2SC1 (stereo partly specified) , readout=normalized growth) returns 0.979

What the record says about "COc1cc(O)c(C(=O)O)c(O)c1" : normalized growth is 0.954

Field normalized growth (entry C[C@]12CCC3C(CC[C@H]4C[C@@H](Cl)CC[C@]34C)C1CCC2=O (stereo partly specified) ) reads 1.01

Given item "C=C(C)c1cc2cc(C(C)=O)c(O)cc2o1" , the value recorded as its normalized growth is 0.934

Recorded result, C[C@]12CCC3C(CC[C@H]4C[C@@H](O)CC[C@]34C)C1CCC2=O (stereo partly specified) , normalized growth: 1.03

Record C[C@]12CCC3c4ccc(O)cc4CCC3C1CC[C@@H]2OC(=O)CCC1CCCC1 (stereo partly specified) , field normalized growth: 0.991

The compound identified as "COC(=O)C1=CO[C@@H](O[C@@H]2O[C@H](CO)[C@@H](O)[C@H](O)[C@H]2O)[C@@H]2[C@@H](C)[C@@H](O)C[C@H]12" registered its normalized growth at 0.987

compound "COc1cc2ccc(=O)oc2cc1O" , normalized growth observed: 0.992

The compound "CC1(C)C[C@@H]2C(=O)CC[C@H]3O[C@]3(C)CC[C@H]21" showed normalized growth equal to 0.997

The compound listed as "CC(C)=CCOc1c2occc2cc2ccc(=O)oc12" has a reported normalized growth of 0.898

The compound listed as "O=[N+]([O-])/N=C1/NCCN1Cc1ccc(Cl)cc1" has a reported normalized growth of 0.991

The value of normalized growth measured for the compound "O=c1[nH]c2ccccc2n1C1CCN(CCCC(c2ccc(F)cc2)c2ccc(F)cc2)CC1" turned out to be 0.993

Record "Cc1cccc(N(C)C(=S)Oc2ccc3ccccc3c2)c1" , field normalized growth: 0.981

Documented normalized growth of CSCCC(NC=O)C(=O)NC(CC(C)C)C(=O)NC(Cc1ccccc1)C(=O)O (stereo unspecified) : 0.996

// field: normalized growth; key: CC(=O)OCC(=O)[C@@]1(O)CCC2C3CCC4=CC(=O)CC[C@]4(C)[C@@]3(F)[C@@H](O)C[C@@]21C (stereo partly specified) ; value = 1.01

Memo: "N#C/C(=C\c1ccc(O)cc1)C(=O)O" , reported normalized growth: 0.999

Memo: "COc1ccc2ccc(=O)oc2c1CC=C(C)C" , reported normalized growth: 0.898

These entries and their values trace back to PubChem BioAssay AID1159580.
